meta.source: PubChem BioAssay (NCI)

Tested on: MDA-MB-435
Assay: NCI tumour cell line growth inhibition, 48 h
readout.type: TGI

[[record]]
compound = "CCOC(=O)CCC(NC(=O)c1ccc(Nc2nc3cc(C(F)(F)F)ccc3nc2-c2ccccc2)cc1)C(=O)OCC (configuration not stated)"
obs_value = "> 100 µM"

[[record]]
compound = "O=C1c2ccccc2-c2c1c1ccccc1c(=O)n2CCCN1CCOCC1"
obs_value = "> 100 µM"

[[record]]
compound = "CC1NC(/C(=C/c2ccccc2O)NC(=O)c2ccccc2)OC1=O (configuration not stated)"
obs_value = "> 50 µM"

[[record]]
compound = "Cn1c(=O)c2[nH]c(CS(=O)(=O)Cc3nc4c([nH]3)c(=O)n(C)c(=O)n4C)nc2n(C)c1=O"
obs_value = "> 100 µM"

[[record]]
compound = "CC1[C@@H](OCc2ccccc2)COC(=O)N1Cc1ccccc1 (some centres not stated)"
obs_value = "> 100 µM"

[[record]]
compound = "CC1N(C)C(=O)OC12CCN(CCCC(=O)c1ccc(F)cc1)CC2 (configuration not stated)"
obs_value = "> 100 µM"

[[record]]
compound = "[N-]=[N+]=Nc1ccc2c(c1)Sc1ccccc1N2CCCCCl"
obs_value = "> 100 µM"

[[record]]
compound = "COC(=N)C12C(N)=NC(OC)(OC)C1(C#N)C21C(=O)N(c2ccccc2)N=C1C (configuration not stated)"
obs_value = "> 100 µM"

[[record]]
compound = "CC1(C)OCC(C2OC(N3O[C@H](CI)C[C@@H]3c3ccccc3)C3OC(C)(C)OC23)O1 (some centres not stated)"
obs_value = "> 100 µM"

[[record]]
compound = "COc1cc(-c2coc3c(OC)c(OC4OC(CO)C(O)C(O)C4O)c(OC)cc3c2=O)cc(OC)c1C (configuration not stated)"
obs_value = "17.9 µM"

[[record]]
compound = "Cc1ccc(S(=O)(=O)NNC(=S)Nc2cccc3ccccc23)cc1"
obs_value = "> 100 µM"

[[record]]
compound = "CCOC(CN=c1nc(N(C)C)ss1)OCC"
obs_value = "32.4 µM"

[[record]]
compound = "COc1ccc(CN(CCc2c[nH]c3ccccc23)Cc2ccc(OC)cc2)cc1"
obs_value = "11.7 µM"

[[record]]
compound = "COc1ccc(SC(C)(SC)c2ccccn2)c(OC)n1 (configuration not stated)"
obs_value = "> 100 µM"

[[record]]
compound = "C=C[C@H]1CN2CCc3c([nH]c4c([C@H]5CCCN5C)c(O)ccc34)[C@@H]2C[C@@H]1C[C@H]1c2[nH]c3ccccc3c2CCN1C"
obs_value = "2.83 µM"

[[record]]
compound = "COc1ccc(-c2nc(-c3ccccc3)c(-c3ccccc3)n2C2CC2)cc1OC1CCCC1"
obs_value = "> 165 µM"

[[record]]
compound = "CC(=O)CCC[C@@H](C)[C@@H]1O[C@H]([C@@]2(C)CCC(=O)O2)C[C@H]2C(CSc3ccccc3)C(=O)O[C@@H]12 (some centres not stated)"
obs_value = "45.6 µM"

[[record]]
compound = "CC1=Cc2cc3[n-]c(cc4nc(cc5[n-]c(cc1n2)cc5C)C(C)=C4CCC(=O)O)c(CCC(=O)O)c3C.[Pd+2]"
obs_value = "> 100 µM"

[[record]]
compound = "CCOC(=O)c1nc2ccc(C(F)(F)F)cc2nc1Oc1ccc(F)cc1"
obs_value = "> 100 µM"

[[record]]
compound = "N=C(N)CCCCCCCCC(=N)N"
obs_value = "> 100 µM"

[[record]]
compound = "CCOC(=O)Oc1c(OC)cc(C(=O)O[C@@H]2C[C@@H]3CN4CCc5c([nH]c6cc(OC)ccc56)[C@H]4C[C@@H]3[C@H](C(=O)OC)[C@H]2OC)cc1OC"
obs_value = "23.9 µM"

[[record]]
compound = "CC(C)C(N=Cc1ccccc1O)C(=O)O (configuration not stated)"
obs_value = "> 100 µM"

[[record]]
compound = "CC1=C(OC2OC(CO)C(O)C(O)C2O)C(=O)C[C@H]2C1=CC[C@@H]1[C@@]2(C)C(=O)C[C@]2(C)[C@@H]([C@@](C)(O)C(=O)CCC(C)(C)O)[C@H](O)C[C@@]12C (some centres not stated)"
obs_value = "> 100 µM"

[[record]]
compound = "CC1(C)C(=O)N=C(N)N1C(=O)OCc1ccccc1"
obs_value = "> 100 µM"

[[record]]
compound = "NC1CC(=O)c2cc(Br)sc21 (configuration not stated)"
obs_value = "> 100 µM"

[[record]]
compound = "CCN(CC)CCCCCCCNc1c2ccc(Cl)cc2nc2ccc(OC)cc12"
obs_value = "3.16 µM"

[[record]]
compound = "C=C1C(=O)O[C@H]2[C@H]1CC/C(Cn1cc(-c3ccccc3)nn1)=C\\CC[C@@]1(C)O[C@@H]21"
obs_value = "9.18 µM"

[[record]]
compound = "O=C1c2ccccc2-c2c1c1ccccc1c(=O)n2CCNCCNCCn1c2c(c3ccccc3c1=O)C(=O)c1ccccc1-2"
obs_value = "19.6 µM"

[[record]]
compound = "CC(=O)O[C@H]1C(=O)[C@@]2(C)[C@H]([C@H](OC(=O)C3CCCCC3)[C@]3(O)C[C@H](OC(=O)[C@H](O)[C@@H](NC(=O)C4CCCCC4)C4CCCCC4)C(C)=C1C3(C)C)[C@]1(OC(C)=O)CO[C@@H]1C[C@@H]2O"
obs_value = "0.0105 µM"

[[record]]
compound = "S=C(Nc1ccc(Cl)cc1)Nc1ccc(Cl)cc1 (tested in a mixture with another compound)"
obs_value = "7.86 µM"

[[record]]
compound = "C[C@]12CCC(=O)C(O)=C1CC[C@@H]1[C@@H]2CC[C@]2(C)C(=O)CC[C@@H]12"
obs_value = "> 100 µM"

[[record]]
compound = "CC(=O)c1ccc2c(c1)oc(=O)n2CCN1CCCCC1"
obs_value = "> 100 µM"

